target: MBL (Homo sapiens, UniProt P11226)
Sequence (P11226 21-248): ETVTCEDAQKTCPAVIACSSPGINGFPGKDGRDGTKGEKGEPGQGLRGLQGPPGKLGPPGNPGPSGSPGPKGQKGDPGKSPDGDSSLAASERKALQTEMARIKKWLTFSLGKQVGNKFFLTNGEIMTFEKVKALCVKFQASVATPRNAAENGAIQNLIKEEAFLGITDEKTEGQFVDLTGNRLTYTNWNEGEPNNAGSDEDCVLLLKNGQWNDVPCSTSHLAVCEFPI
pIC50: −log10 of the molar value.
Result Type: pIC50

{"Compound": "O=C[C@H](O)[C@@H](O)[C@@H](O)[C@H](O)CO", "Target Entity": "MBL (Homo sapiens, UniProt P11226)", "Measured": "~1.44"}

Now consider the entry below.
Asked: Input CC(=O)N[C@H]1C(O)O[C@H](CO)[C@@H](O)[C@@H]1O (some centres unmarked) , output reported pIC50.
Given back: ~2.22
